recordedMetric: melting point (°C)

CN(CC(=O)NC1CCCC1)c1nc(Cc2ccc(NC(=O)c3cccc4ccccc34)cc2)nc(Cl)c1CC(=O)O    136
CN(CC(=O)NC1CCCC1)c1nc(Cc2ccc(NC(=O)/C=C/c3ccccc3)cc2)nc(Cl)c1CC(=O)O    142
CN(C)c1nc(Cc2ccc(NC(=O)OCc3ccccc3)cc2)nc(N(C)C)c1CC(=O)O    100

###

Listed next: entries and their corresponding IC50.
biological target: human CRTH2 (Homo sapiens); construct: expressed in transfected cells; host or cells: L1.2 cells, pEAK expression vector, puromycin-selected; assay: Measurement of Ca2+ mobilization in the human CRTH2-transfected L1.2 cell line (Assay 1); assay type: cell-based; settings: PGD2-induced Ca2+ mobilization in CRTH2-transfected L1.2 cells; compounds as yielded by solid phase synthesis, purity about 40 to 90%; read-out: Activity class
Sequence (Q9Y5Y4 whole entry): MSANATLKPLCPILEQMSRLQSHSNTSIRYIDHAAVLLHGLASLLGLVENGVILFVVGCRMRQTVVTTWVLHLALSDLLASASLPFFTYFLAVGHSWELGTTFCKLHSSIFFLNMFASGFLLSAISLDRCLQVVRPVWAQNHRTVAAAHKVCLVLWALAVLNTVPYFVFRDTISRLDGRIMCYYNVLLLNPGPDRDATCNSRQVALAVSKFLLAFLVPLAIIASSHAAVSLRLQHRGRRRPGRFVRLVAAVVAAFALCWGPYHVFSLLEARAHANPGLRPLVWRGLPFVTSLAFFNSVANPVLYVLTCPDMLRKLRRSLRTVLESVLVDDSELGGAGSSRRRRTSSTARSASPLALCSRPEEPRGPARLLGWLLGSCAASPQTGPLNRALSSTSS

These solved cases illustrate the format of a correct answer.
CN(C)c1nc(Cc2ccc(NC(=O)c3ccc(S(N)(=O)=O)cc3)cc2)nc(Cl)c1CC(=O)O [Example 1-40]    100 to 500 nM
CC(c1ccc(NC(=O)c2ccc(C(F)(F)F)cc2)cc1)c1ncc(CC(=O)O)c(N(C)C)n1 (stereo not drawn) [Example 2-22]    < 10 nM
O=C(O)Cc1c(Cl)nc(Cc2ccc(NC(=O)c3ccc4ccccc4c3)cc2)nc1N1CC=CC1 [Example 3-10]    < 10 nM
COc1ccc(C(=O)Nc2ccc(Cc3nc(Cl)c(CC(=O)O)c(N(C)C)n3)cc2)cc1 [Example 1-36]    < 10 nM
CN(C)c1nc(Cc2ccc(NC(=O)c3ccc(F)cc3)cc2)ncc1CC(=O)O [Example 2-20]    10 to 100 nM

State the recorded IC50 for this entry: CN(CC(=O)NC1CCCC1)c1nc(Cc2ccc(NC(=O)c3ccc4ccccc4c3)cc2)nc(Cl)c1CC(=O)O [Example 1-62]
< 10 nM

State the recorded IC50 for this entry: CN(CCO)c1nc(Cc2ccc(NC(=O)c3ccc4ccccc4c3)cc2)nc(Cl)c1CC(=O)O [Example 1-66]
< 10 nM

State the recorded IC50 for this entry: CN(C)c1nc(Cc2ccc(NC(=O)c3ccc4ccccc4c3)cc2)nc(N(C)C)c1CC(=O)O [Example 7-3]
10 to 100 nM

State the recorded IC50 for this entry: CN(CC(=O)NC1CCCC1)c1nc(Cc2ccc(NC(=O)NCc3ccccc3)cc2)nc(Cl)c1CC(=O)O [Example 4-2]
10 to 100 nM

State the recorded IC50 for this entry: CN(CC(=O)NC1CCCC1)c1nc(Cc2ccc(NC(=O)Cc3ccc(-c4ccccc4)cc3)cc2)nc(Cl)c1CC(=O)O [Example 1-24]
100 to 500 nM

State the recorded IC50 for this entry: CN(C)c1nc(Cc2ccc(NC(=O)c3ccc(Cl)c(Cl)c3)cc2)nc(N2CCOCC2)c1CC(=O)O [Example 7-19]
10 to 100 nM

State the recorded IC50 for this entry: O=C(O)Cc1c(Cl)nc(Cc2ccc(NC(=O)c3ccc(C(F)(F)F)cc3)cc2)nc1N1CCCC1 [Example 1-64]
< 10 nM
